# protocol.text: Serum vorinostat pharmacokinetics
# Type: in vivo, human
# particulars: human, serum, oral, 200 mg, AUC0-8 h, Geometric mean, N 21
readout: AUC(0-t) (ng·h/mL)
# output: bare number, implied unit ng·h/mL

Q) Entry O=C(CCCCCCC(=O)Nc1ccccc1)NO [vorinostat, suberoylanilide hydroxamic acid] has what AUC(0-t)?
A) 591

Origin of measurements: paper PMC4332848
